Assay: yeast display, Sf9 membrane polyspecificity reagent, FACS + sequencing; frameworks hold sequencing errors
measured-property: polyreactivity (PSR sort gate)

ordered-residues	polyreactivity (PSR sort gate)
QVQLVESGGGLVQAGGSLRLSCAASGSIFKVYAMGWYRQAPGKERELVASITSGGRTYADSVKGRFTISRDNAKNTVYLQMNSLKPEDTAVYYCSARSRSKFYYWGQGTQLTVSS	high polyreactivity
QVQLVESGGGLVQAGGSLRLSCAASGSIFLRNAMGWYRQAPGKERELVAAITWDSGDTYYADSVQGRFTISRDNAKNTVYLQMNSLKPEDTAVYYCNTLGLSSDWGQGTQVTVSS	low polyreactivity
QVPLVESGVGLVQAGGSLRLSCAASGYTFYSYAMGWYRQAPGKEREFVAAIRTGGGTNYADSVKGRFTISRDNAKNTVYLQMNSLKPEDTAVYYCAARYYSQKSYIGFRPGYEYWGQGTQVTVSS	low polyreactivity
QVQLVESGGGLVQAGGSLRLSCAASGLTFSYYAMGWYRQAPGKERELVAAIDYSGGTTYADSVKGRFTISRDNAKNTVYLQMNSLKPEDTAVYYCAREWYQYSPYHRFDYWGQGTQVTVSS	high polyreactivity
QVQLVESGGGLVQAGGSLRLSCAASGRIIGNYAMGWYRPAPGKERELVARISQSGGSTYYADSVKGRFTISRDHAKNSLYLQMNSLKPEDTAVYYCAKRGRYRYDRDNRYEYWGQGTQVNVSS	low polyreactivity
QVQLVESGGGLVQAGGSLRLSCAASGFTFYHYAMGWYRQAPGKERELVAAISRSGGSTYYADSVKGRFTISRDNAKNTVYLQMNSLKPEDTAVYYCSKVLRAKNSFDYWGQGTQVTVSS	high polyreactivity

Query :: # polyreactivity (PSR sort gate) lookup, item QVQLVESGGGLVQAGGSLRLSCAASGSTFSGYAMGWYRQAPGKERELVAAITSGGSTNYADSVKGRFTISRDNAKNTVYLQMNSLKPEDTAVYYCAADSREVSTTAYYYWGQGTQVTVSS
Result :: low polyreactivity
